The reported measurements were obtained from patent US20180161425A1.

Test system: MDCK cells
Format: cell-based
Consider the following sequences; for each one, report its cell binding activity when compared to AH2 peptide.
One number for each entry, in %.

INSERT INTO results (residue_codes, val) VALUES
  ('KRLFKLSYIETRYMASDK [SWS-AH]', 24),
  ('MHSATAAQLETLRLFKFP [ANMV-AH]', 15),
  ('RTLSLLRRLFFKSDLGFL [AHV-AH]', 40);

Next up:
(Q) Give its cell binding activity when compared to AH2 peptide value. Item: MPRLFKIYAKNYFLTYPN [TYLCV-AH]
(A) 25
